# EXPERIMENTAL_TARGET: glucocorticoid receptor (Homo sapiens)
# Construct: host or cells: A549 human lung epithelial cells
# MEASUREMENT_DESCRIPTION: Glucocorticoid Receptor Binding Assay (Method 1), [3H]-dexamethasone competition in A549 cell extract
# RUN_CONDITIONS: 1.86 nM [3H]-dexamethasone, read-out: GR Ki (nM) Method 1
ENDPOINT: Ki

Solved entries (count: 2):
COMPOUND | EXPERIMENTAL_TARGET | REPORTED_RESULT
CS(=O)(=O)Nc1cccc(C=C2c3ccccc3Oc3ccccc32)c1 [Example 20] | glucocorticoid receptor (Homo sapiens) | < 1000 nM
COc1cccc(C=C2c3ccccc3Cc3ccccc32)c1 [Example 18] | glucocorticoid receptor (Homo sapiens) | < 10000 nM

// below: Ki requested for another compound
Reported Ki of Oc1cccc(C=C2c3ccccc3Cc3ccccc32)c1 [Example 19, 3-(10H-Anthracen-9-ylidenemethyl)-phenol] : < 10000 nM

---

# EXPERIMENTAL_TARGET: human GR (glucocorticoid receptor) (Homo sapiens)
# Construct: expressed in transfected cells; host or cells: 293 cells
# Sequence (P04150 1-777): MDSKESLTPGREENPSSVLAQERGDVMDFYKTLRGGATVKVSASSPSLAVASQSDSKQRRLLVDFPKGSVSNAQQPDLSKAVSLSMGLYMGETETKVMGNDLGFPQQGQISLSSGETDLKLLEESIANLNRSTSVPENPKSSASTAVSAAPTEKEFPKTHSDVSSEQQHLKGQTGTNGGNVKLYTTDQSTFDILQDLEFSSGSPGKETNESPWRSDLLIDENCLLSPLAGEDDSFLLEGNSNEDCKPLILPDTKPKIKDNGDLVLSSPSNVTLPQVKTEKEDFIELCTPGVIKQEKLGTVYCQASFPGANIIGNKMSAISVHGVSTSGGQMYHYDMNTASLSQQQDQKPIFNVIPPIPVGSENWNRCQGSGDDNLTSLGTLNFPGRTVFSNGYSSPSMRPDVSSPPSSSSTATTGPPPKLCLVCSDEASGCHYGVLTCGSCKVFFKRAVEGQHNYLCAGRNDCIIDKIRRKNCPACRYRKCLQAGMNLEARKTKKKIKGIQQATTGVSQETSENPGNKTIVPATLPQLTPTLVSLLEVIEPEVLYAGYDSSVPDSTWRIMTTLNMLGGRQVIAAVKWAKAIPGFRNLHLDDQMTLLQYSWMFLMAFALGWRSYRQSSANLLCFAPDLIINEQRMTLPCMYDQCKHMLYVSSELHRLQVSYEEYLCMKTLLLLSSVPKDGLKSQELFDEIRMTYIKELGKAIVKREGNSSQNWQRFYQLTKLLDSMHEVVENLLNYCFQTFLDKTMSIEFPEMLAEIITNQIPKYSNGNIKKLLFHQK
# MEASUREMENT_DESCRIPTION: Alternative Binding Assay Protocol (Method 2), 293-GR lysate, 3H-dexamethasone competition
# RUN_CONDITIONS: 0.3 nM 3H-dexamethasone
Entries and their measured Ki follow.

COMPOUND | ENDPOINT | REPORTED_RESULT
CS(=O)(=O)Nc1cccc(C=C2c3ccccc3Sc3ccccc32)c1 [Example 8] | Ki | < 500 nM
CN1CCN(CCn2c(=O)[nH]c3cc(C=C4c5ccccc5Sc5ccccc54)ccc32)CC1 [Example 14] | Ki | < 10000 nM

For O=c1[nH]c2cc(C=C3c4ccccc4Sc4ccccc43)ccc2n1CCN1CCOCC1 [Example 13] the compound record lists Ki as < 1000 nM

Reported Ki ( O=c1[nH]c2ccc(C=C3c4ccc(F)cc4Sc4cc(F)ccc43)cc2[nH]1 [Example 5] ) = < 1000 nM

Record O=c1[nH]c2cc(C=C3c4ccccc4Sc4ccccc43)ccc2o1 [Example 11] , field Ki: < 500 nM

O=c1[nH]c2cc(C=C3c4ccccc4Sc4ccccc43)ccc2s1 [Example 12] yielded Ki of < 500 nM

Note to self: Ki recorded for O=c1[nH]c2ccc(C=C3c4ccccc4Sc4ccccc43)cc2[nH]1 [Example 10] was < 10000 nM

Recorded result, Nc1cccc(C=C2c3ccccc3Sc3ccccc32)c1 [Example 9] , Ki: < 1000 nM
